TARGET UNDER TEST: Voltage-dependent T-type calcium channel subunit alpha-1H (Homo sapiens);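 also: channel activity triggered by adding a high calcium stimulation buffer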
Sequence (O95180 whole entry): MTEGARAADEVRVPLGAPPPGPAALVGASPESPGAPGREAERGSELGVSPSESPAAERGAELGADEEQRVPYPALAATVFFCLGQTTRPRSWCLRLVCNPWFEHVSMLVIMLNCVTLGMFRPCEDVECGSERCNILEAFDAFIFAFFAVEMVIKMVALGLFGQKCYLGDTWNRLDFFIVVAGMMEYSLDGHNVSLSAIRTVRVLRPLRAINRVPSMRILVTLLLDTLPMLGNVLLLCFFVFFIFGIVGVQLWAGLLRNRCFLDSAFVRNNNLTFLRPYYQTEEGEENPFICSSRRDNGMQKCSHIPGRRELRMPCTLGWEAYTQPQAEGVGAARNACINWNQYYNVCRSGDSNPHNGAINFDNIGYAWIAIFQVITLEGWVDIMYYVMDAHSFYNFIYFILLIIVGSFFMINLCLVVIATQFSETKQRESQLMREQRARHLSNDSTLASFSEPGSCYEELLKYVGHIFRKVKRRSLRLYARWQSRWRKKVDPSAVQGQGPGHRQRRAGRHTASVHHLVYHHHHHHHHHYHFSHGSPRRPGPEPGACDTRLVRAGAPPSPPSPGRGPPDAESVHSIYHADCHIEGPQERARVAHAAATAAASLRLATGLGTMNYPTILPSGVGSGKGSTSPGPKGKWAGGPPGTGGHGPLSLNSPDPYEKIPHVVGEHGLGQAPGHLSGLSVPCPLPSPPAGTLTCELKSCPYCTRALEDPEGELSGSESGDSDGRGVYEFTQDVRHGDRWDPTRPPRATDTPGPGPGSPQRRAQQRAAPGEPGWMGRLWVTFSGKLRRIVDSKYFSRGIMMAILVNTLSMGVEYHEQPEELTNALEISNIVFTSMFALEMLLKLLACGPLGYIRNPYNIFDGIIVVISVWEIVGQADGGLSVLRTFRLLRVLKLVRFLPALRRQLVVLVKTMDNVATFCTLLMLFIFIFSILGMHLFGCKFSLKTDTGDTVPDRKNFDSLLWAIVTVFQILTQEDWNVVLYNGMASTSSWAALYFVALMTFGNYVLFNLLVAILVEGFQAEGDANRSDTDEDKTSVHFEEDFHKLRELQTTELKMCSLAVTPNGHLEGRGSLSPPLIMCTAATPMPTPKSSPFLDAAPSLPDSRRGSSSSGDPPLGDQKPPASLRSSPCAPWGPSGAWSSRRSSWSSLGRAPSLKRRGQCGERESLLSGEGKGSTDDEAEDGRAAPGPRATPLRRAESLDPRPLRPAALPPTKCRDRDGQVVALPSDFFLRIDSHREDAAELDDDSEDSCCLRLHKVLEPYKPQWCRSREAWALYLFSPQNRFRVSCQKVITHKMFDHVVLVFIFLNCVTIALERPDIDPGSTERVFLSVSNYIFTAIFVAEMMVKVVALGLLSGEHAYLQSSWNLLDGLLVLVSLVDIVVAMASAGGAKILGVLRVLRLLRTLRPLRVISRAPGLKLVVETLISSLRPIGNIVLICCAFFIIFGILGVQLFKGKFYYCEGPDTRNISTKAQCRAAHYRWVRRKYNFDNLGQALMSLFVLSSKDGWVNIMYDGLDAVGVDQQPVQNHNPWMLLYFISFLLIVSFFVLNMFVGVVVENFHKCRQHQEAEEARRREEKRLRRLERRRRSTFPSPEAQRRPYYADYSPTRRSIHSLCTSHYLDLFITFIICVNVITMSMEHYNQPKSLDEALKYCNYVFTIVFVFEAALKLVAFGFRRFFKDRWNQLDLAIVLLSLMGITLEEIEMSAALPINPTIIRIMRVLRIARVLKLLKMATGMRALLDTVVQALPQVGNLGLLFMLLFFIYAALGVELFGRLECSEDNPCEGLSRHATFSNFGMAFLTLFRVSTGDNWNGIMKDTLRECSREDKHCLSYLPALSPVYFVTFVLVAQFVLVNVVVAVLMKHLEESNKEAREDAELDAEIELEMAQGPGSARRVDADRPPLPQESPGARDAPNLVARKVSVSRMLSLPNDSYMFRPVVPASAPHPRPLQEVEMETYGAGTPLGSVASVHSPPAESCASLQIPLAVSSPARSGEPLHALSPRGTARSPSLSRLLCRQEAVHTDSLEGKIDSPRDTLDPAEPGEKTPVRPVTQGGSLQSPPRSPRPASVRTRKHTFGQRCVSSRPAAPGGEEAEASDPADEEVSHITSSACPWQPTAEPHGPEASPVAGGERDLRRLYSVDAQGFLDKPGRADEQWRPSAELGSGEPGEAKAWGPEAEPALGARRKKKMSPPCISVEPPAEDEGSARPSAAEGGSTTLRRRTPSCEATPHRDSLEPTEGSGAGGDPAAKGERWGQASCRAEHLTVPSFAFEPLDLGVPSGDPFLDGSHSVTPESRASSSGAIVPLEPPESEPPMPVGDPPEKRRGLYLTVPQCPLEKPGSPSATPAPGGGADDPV
Type: functional
Activity calls are given as the source filed them.

| COMPOUND | EC50 |
| --- | --- |
| O=C(CSc1nc2ccccc2[nH]1)Nc1ccc2c(c1)OCCO2 | 13.3 µM (active) |
| COc1ccccc1NC(=O)c1nnn(Cc2ccccc2)c1NC(=O)C(F)(F)F | 3.86 µM (active) |
| Cc1ccc(-c2ccc(/C=N/N3C(=O)C4C5C=CC(C6CC56)C4C3=O)o2)c([N+](=O)[O-])c1 (stereo not given) | 7.22 µM (active) |
| O=C(Nc1ccn(Cc2ccccc2F)n1)c1ccc(COc2cc(Cl)ccc2Cl)o1 | 7.11 µM (active) |
| Cc1snc(S(=O)(=O)/C(C#N)=N/Nc2ccc(C(F)(F)F)cc2)c1C#N | 6.48 µM (active) |

====

TARGET UNDER TEST: Luciferin 4-monooxygenase (Photinus pyralis)
Sequence (P08659 whole entry): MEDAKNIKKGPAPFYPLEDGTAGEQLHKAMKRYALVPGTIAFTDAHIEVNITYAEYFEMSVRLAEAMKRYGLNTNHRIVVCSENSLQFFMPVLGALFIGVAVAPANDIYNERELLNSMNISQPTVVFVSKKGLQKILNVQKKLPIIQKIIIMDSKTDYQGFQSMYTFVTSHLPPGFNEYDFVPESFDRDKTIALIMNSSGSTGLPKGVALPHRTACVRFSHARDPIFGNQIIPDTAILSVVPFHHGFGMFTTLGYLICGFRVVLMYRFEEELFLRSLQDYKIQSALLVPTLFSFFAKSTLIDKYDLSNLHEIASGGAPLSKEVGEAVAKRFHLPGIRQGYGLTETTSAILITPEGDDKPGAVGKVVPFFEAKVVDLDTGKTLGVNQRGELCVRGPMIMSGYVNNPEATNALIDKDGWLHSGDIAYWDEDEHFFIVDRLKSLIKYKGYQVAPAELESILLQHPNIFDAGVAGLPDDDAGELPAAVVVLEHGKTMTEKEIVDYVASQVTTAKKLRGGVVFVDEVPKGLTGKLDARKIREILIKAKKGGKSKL
EXPERIMENTAL DETAILS: inhibition of purified Photinus pyralis luciferase – biochemical, luminescence, dose response (AID 1891)
Calls of active or inactive are those of the source.
PARAMETER: EC50

| MOLECULE | MEASURED RESULT |
| --- | --- |
| COc1ccc(CCNC(=O)CSc2nc(N)c3c(C)c(C)oc3n2)cc1OC | > 112 µM (not active) |
| Cc1ccc(CNC(=O)CCS(=O)(=O)c2ccc(Br)s2)o1 | > 112 µM (not active) |
| COC(=O)c1nn(-c2ccccc2)c(Sc2ccc(OC)cc2)c1/C=N/O | > 112 µM (not active) |
| Clc1nccnc1N/N=C/c1ccc(Br)cc1 | 2.82 µM (active) |
| Oc1nc(CN2CC=C(c3ccccc3)CC2)nc2cc(C(F)(F)F)ccc12 | > 112 µM (not active) |
| Cc1ccc2oc(-c3cccc(NC(=O)C4CCCO4)c3)nc2c1 (configuration not stated) | 26.6 µM (active) |
| CCOC(=O)c1cnc2c([N+](=O)[O-])cnn2c1C | > 112 µM (not active) |

====

List of AC50 values.
TARGET UNDER TEST: Replicative DNA helicase DnaB (Mycobacterium tuberculosis, UniProt P9WMR3)
EXPERIMENTAL DETAILS: DnaB intein splicing inhibitors, dose response, biochemical, cell-free fluorescence (AID 449749)
Assay type: functional
The source made the active and inactive calls.
PARAMETER: AC50

| COMPOUND | MEASURED RESULT |
| --- | --- |
| CCCc1n[nH]c(O)c1C(c1ccc(Br)cc1)C(C#N)C#N (centres undefined) | 5.5 µM (active) |
| Cc1ccc(Sc2c(C)[nH]n(C(C)(C)C)c2=O)cc1 | 30 µM (active) |
| O=C1C(Nc2ccccc2)=C(N2CCCCC2)C(=O)c2ccccc21 | 68.5 µM (active) |
| COC(=O)CCCC1=CC2=C(c3ccccc3)C(=O)C(C)(OC(=O)C3CCCC3)C(=O)C2=CN1CCCCO (centres undefined) | 68.9 µM (active) |

====

TARGET UNDER TEST: Heat shock factor protein 1 (Mus musculus, UniProt P38532)
Sequence (P38532 whole entry): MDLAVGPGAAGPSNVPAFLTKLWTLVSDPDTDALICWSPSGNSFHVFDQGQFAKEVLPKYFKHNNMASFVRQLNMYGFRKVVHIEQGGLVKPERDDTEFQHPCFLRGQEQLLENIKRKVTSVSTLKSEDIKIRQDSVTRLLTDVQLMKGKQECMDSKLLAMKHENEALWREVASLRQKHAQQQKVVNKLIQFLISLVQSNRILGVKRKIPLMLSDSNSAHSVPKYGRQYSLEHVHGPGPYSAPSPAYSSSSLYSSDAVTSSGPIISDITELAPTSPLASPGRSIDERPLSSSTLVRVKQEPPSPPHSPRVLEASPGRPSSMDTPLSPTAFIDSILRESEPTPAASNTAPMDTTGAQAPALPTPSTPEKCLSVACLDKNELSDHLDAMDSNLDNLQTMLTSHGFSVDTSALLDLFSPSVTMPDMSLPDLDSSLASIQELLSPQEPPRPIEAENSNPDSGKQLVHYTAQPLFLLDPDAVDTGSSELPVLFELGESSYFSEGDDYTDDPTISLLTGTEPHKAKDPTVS
EXPERIMENTAL DETAILS: decrease of HSF1-responsive luciferase luminescence – cell-based, NIH3T3, dose retest, confirmation (AID 2382);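 also: NIH3T3 fibroblasts with HSF1-driven luciferase reporter stressed by proteasome inhibitor MG132; luminescence from HSF1-driven luciferase expression after 8 hours of MG132 stress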
Format: functional
The source made the active and inactive calls.

| COMPOUND | EC50 |
| --- | --- |
| CCOC(=O)C1(C)NC(c2ccc(O)cc2)C2C(=O)N(c3ccccc3)C(=O)C21 (centres undefined) | 93.8 µM (active) |
| O=C(COC(=O)C1(c2ccccc2F)CCCC1)N1CCc2ccccc21 | > 195 µM (not active) |
| CN(C)c1ccc(N=Nc2ccc(C(=O)O)cc2)cc1 | 1.68 µM (active) |
| O=C(NCc1ccncc1)C(=O)Nc1nc(C23CC4CC(CC(C4)C2)C3)cs1 | > 195 µM (not active) |
| CCCCn1cc(S(=O)(=O)c2ccccc2)c(=O)c2cc(C)ccc21 | > 195 µM (not active) |
| CCOc1ccc(N=Nc2c(N)n[nH]c2O)cc1 | > 195 µM (not active) |
| COc1ccc(OC)c(NC(=O)CSCC(=O)O)c1 | > 195 µM (not active) |
| Cc1ccc(/C=N\NC(=O)Cc2noc3ccccc23)cc1 | > 195 µM (not active) |
| OC(COc1c(F)cc(Br)cc1F)CN1CCN(c2ccc(F)cc2)CC1 (centres undefined) | > 195 µM (not active) |

====

System: Streptococcus
EXPERIMENTAL DETAILS: GAS UMAA2166 growth inhibition – luminescence, BacTiterGlo, counter-screen for streptokinase expression inhibitor project, dose response (AID 1915);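 also: potency for reduction of bacterial viability or growth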
Type: functional, organism-based
Calls of active or inactive are those of the source.
EC50 overview
PARAMETER: EC50

| COMPOUND | TARGET UNDER TEST | MEASURED RESULT |
| --- | --- | --- |
| CNc1ccc2oc(C[C@H]3O[C@@]4(CC[C@H]3C)O[C@H]([C@H](C)C(=O)c3ccc[nH]3)[C@H](C)C[C@H]4C)nc2c1C(=O)O | Streptococcus | 0.128 µM (active) |
| CC(C)N1CCc2c(sc(NC(=O)c3ccc([N+](=O)[O-])o3)c2C(N)=O)C1 | Streptococcus | 8.99 µM (active) |
| CN(C)C=O.N#Cc1ccc(Cl)cc1NC(=O)CSc1nc(O)c2c(C(F)(F)F)cc(-c3cccs3)nc2n1 | Streptococcus | > 150 µM (not active) |
| C=C(C)CN=C(S)NNC(=O)CCn1c2ccc(Cl)cc2c2cc(Cl)ccc21 | Streptococcus | 8.01 µM (active) |
| Fc1ccc(Br)cc1C1C=C(c2ccc(Br)s2)Nc2ncnn21 (stereo unspecified) | Streptococcus | 24.3 µM (active) |
| CN(C)CCCNc1cc(C(C)(C)C)nc2c(-c3ccc(Cl)cc3)cnn12 | Streptococcus | 8.08 µM (active) |

====

Readings of IC50 for the listed molecules
TARGET UNDER TEST: Large T antigen (Simian virus 40);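 also: Confirmatory-stage PubChem screen for compounds that inhibit SV40 T antigen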
Sequence (P03070 whole entry): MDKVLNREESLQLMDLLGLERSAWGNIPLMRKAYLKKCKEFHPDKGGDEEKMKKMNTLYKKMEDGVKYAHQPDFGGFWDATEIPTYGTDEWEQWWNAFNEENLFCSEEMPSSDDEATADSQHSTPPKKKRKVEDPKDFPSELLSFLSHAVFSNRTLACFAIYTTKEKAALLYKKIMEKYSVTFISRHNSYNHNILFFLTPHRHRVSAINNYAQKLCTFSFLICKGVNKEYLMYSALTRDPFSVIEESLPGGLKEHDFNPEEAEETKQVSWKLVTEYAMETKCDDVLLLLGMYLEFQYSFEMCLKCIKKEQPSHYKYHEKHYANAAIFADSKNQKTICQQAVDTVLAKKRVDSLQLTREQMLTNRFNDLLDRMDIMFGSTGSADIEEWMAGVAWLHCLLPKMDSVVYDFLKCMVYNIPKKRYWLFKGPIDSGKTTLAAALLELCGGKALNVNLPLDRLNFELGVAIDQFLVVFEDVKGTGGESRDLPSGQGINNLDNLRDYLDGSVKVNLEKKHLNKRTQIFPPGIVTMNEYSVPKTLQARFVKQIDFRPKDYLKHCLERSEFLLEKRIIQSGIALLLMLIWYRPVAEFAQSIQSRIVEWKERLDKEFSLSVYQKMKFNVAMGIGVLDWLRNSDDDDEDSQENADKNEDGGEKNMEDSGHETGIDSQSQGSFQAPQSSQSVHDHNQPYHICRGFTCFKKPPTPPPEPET
Format: functional, Betapolyomavirus macacae
Active and inactive are the calls of the source.

| COMPOUND STRUCTURE STRING | IC50 |
| --- | --- |
| CCOC(=O)c1[nH]c2ccccc2c1N=C(S)Nc1cccc(C)c1C | 35.1 µM (active) |
| O=C1C(SCCO)=C(SCCO)C(=O)c2ccccc21 | 26.6 µM (active) |
| Cc1ccccc1-n1sc2cc(F)ccc2c1=O | 13.1 µM (active) |
| O=C(Nc1ccc(O)cc1)/C(=C\c1cccs1)NC(=O)c1ccccc1 | 23 µM (active) |
| C/C(CC(=O)Nc1ccc(N(C)C)cc1)=N\NC(=O)c1ccncc1 | 13.7 µM (active) |
| O=C(O)CCC(=O)Nc1ccc(SSc2ccc(NC(=O)CCC(=O)O)cc2)cc1 | 5.39 µM (active) |
| C=CCNC(S)=NNC(=O)c1cc(O)ccc1O | > 100 µM (active) |
| O=C(O)c1ccccc1NS(=O)(=O)c1ccc(NNC(=S)Nc2ccc(OC(F)F)cc2)c([N+](=O)[O-])c1 | 29.8 µM (active) |

====

TARGET UNDER TEST: Corticotropin-releasing factor receptor 2/Corticotropin-releasing factor-binding protein (Homo sapiens, UniProt P24387+Q13324)
Sequence (Q13324 whole entry): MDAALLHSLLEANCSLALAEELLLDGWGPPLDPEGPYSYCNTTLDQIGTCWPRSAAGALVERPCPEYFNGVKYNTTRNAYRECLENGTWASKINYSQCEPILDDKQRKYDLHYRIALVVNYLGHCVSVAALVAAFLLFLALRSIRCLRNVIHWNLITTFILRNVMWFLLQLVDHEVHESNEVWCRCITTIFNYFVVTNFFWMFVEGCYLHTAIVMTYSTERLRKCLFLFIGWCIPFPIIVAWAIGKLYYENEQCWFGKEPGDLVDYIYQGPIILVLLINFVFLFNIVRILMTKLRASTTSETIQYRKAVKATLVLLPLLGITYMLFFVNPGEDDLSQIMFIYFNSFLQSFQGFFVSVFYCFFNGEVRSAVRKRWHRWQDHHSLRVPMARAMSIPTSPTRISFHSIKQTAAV
Sequence (P24387 whole entry): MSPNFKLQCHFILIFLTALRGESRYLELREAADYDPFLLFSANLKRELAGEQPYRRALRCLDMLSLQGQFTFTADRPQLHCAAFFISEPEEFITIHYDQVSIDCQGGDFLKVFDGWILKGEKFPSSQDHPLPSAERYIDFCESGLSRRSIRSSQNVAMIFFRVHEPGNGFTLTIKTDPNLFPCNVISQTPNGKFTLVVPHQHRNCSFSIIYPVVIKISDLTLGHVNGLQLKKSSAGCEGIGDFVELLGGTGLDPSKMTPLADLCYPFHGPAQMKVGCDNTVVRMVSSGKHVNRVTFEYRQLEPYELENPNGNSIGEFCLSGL
EXPERIMENTAL DETAILS: Dose Response confirmation of uHTS hits for small molecule antagonists of the CRF-binding protein and CRF-R2 receptor complex.
Format: functional
CONDITION LABEL: read-out: IC50_Mean
Calls of active or inactive are those of the source.
Outcome codes: T (active), F (inactive)

| COMPOUND | ASSIGNED CLASS |
| --- | --- |
| O=C(CN1C(=O)NC2(CCCC2)C1=O)c1ccc(Cl)s1 | F |
| Cc1ccc(-c2csc3nnc(SCC(=O)N4CCN(Cc5ccccc5)CC4)n23)cc1 | F |
| COc1cccc(C2CC(c3cccs3)=NN2C(=O)c2ccco2)c1O (stereo not given) | T |
| Cc1ccc(NS(=O)(=O)c2cccs2)cc1S(=O)(=O)N1CCCCCC1 | F |
| N#Cc1ccccc1Sc1ccccc1N | F |
